test system: MIWI (PIWIL1) piRISC loaded with L1MC piRNA (30 nt); assay: pre-steady-state target cleavage rate (min^-1); higher = faster piRNA-guided slicing of the target; settings: guide: L1MC piRNA 5'p-UAACUAAAUACUAUGCAAGCUGUAGGUCCU; auxiliary factor: none (no GTSF1);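 also: 1 nM active piRISC with 0.1 nM target library at 33 °C single turnover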
In all, about 8,200 sequences were measured (“pre-steady-state target cleavage rate”: median about 0.024, highest 2% from about 1.3 on). Only a selection was taken, and the highest values are over-represented in it overall.
recorded endpoint: pre-steady-state target cleavage rate

In [3]: df
Out[3]:
                         seq_string                      recorded_endpoint  result_value
 0   UGGAGCAACAGCUUGCAUAGUAUUUAGUUA  pre-steady-state target cleavage rate        0.0851
 1   AGGAGCUACAGCUAGCAUAGUAUUUAGUUA  pre-steady-state target cleavage rate        0.0359
 2  UCCUGGAUGUGCUUGCAUAGUAUUUUAGUUA  pre-steady-state target cleavage rate         0.021
 3   AGGAGGAACAGCUUGCAUAGUAUUUAGUUA  pre-steady-state target cleavage rate        0.0955
 4   UCCACCUACAGCUUGCAUAGUUUUUACUUA  pre-steady-state target cleavage rate        0.0106
 5   UGGAGGAACAGCUUGCAUAGUAUUUAGUUA  pre-steady-state target cleavage rate        0.0795
 6   UCGAGGAACAGCUUGCAUAGUAUUUAGUUA  pre-steady-state target cleavage rate         0.057
 7   UCCUGGAUGAGCUUGCAUAGUUUUUUGUUA  pre-steady-state target cleavage rate        0.0177
 8   UCCUGGAUGUGCAUGCAUAGUAUUUAGUAA  pre-steady-state target cleavage rate       0.00346
 9   UCCUGCUACAGCUUGCUUAGUAUUUAGUUA  pre-steady-state target cleavage rate        0.0337
10   UGGACCUACACCUUGCAUAGUAUUUUCAAA  pre-steady-state target cleavage rate       0.00389
11   UGGACCUACACGUUGCAUAGUAUUUAGUAA  pre-steady-state target cleavage rate       0.00987
12   UCCUGGAGCAGCUUGCAUAGUAUUUAGUUA  pre-steady-state target cleavage rate        0.0692

----------
test system: MIWI (PIWIL1) piRISC loaded with L1MC piRNA (30 nt); assay: pre-steady-state target cleavage rate (min^-1); MIWI and MILI are mouse PIWI proteins and EfPiwi is from a freshwater sponge; tags in brackets are library labels; higher = faster piRNA-guided slicing of the target; conditions: guide: L1MC piRNA 5'p-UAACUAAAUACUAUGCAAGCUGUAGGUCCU; auxiliary factor: none (no GTSF1);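 also: 1 nM active piRISC with 0.1 nM target library at 33 °C single turnover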
Over roughly 8,200 sequences, “pre-steady-state target cleavage rate” has its median near 0.024; the highest 2% begin near 1.3. Many of the other results were omitted from the sample, so the highest values are more common in it than they were.
Values of pre-steady-state target cleavage rate greater than or equal to 0.04 map to Fulfilled; values below map to Not fulfilled.

>>> df
                                  seq_string  classification
 0            UGGAGCUUCAGCUUGCAUAGUAUUUAGUUA       Fulfilled
 1            UGGACGUACAGCUUGCAUAGUAUUAAGUUA   Not fulfilled
 2            AGGAGCUAGAGCUUGCAUAGUAUUUAGUUA       Fulfilled
 3            UCGACCUACAGCUUGCGUAGUAUUUAGUUA       Fulfilled
 4            UCCUGGUUCAGCUUGCAUUGUAUUUAGUUA   Not fulfilled
 5  UCCUGGAUCAGCUUGCAUAGUAUUUAGUUC [g2:g22:cont:t1C]       Fulfilled
 6            UGGACCUACAGCUUGCAUAGUAUUAAGUAA   Not fulfilled
 7            UCCUGCUACAGCAUGCAUAGUAUUUAGUUA   Not fulfilled
 8            AGGACCGACAGCUUGCAUAGUAUUUAGUUA       Fulfilled
 9  UCCUGGAUCAGCUUGCAUAGUAUUUAGUUG [g2:g22:cont:t1G]   Not fulfilled
10            UCCUGGAUCAGCUUGCAUAGUAUUUAGUAA   Not fulfilled
11            UCGACCGACAGCUUGCAUAGUAUUUAGUUA       Fulfilled
12            UGGACCGACAGCUUGCAUAGUAUUUAGUUA       Fulfilled
13           UCCUGGAUCAGCUUUGCAUAGUAUUUAGUUA   Not fulfilled
14           UCCUGGAUCAGCUUGCAUAGUAUUUAGUUUA       Fulfilled
15            AGGACCUACAGCUUGCGUAGUAUUUAGUUA       Fulfilled
16            UCCACCUACAGCUUGCGUAGUAUUUAGUUA       Fulfilled
17            AGGACCUACUGCUUCCAUAGUAUUUAGUUA   Not fulfilled
18            UCCUGCUACAGCUUGCGUAGUAUUUAGUUA   Not fulfilled
19             UCCUGGAUCAGCUUGCAUAGUAUUUAGUA   Not fulfilled
20  UCCUGGAUCAGCUUGCAUAGUAUUUAGUUA [g2:g22:cont:t1A]       Fulfilled
21  UCCUGGAUCAGCUUGCAUAGUAUUUAGUUU [g2:g22:cont:t1U]       Fulfilled
22            UCCACCGACAGCUUGCAUAGUAUUUAGUUA       Fulfilled
23           AGAGACCUACAGCUUGCAUAGUAUUUAGUUA       Fulfilled
24           UCCUGGAUGAGCUUGCAUAGUAUUUAGUAUA   Not fulfilled
25            UCCUGGAACAGCUUGCAUAGUAUUAUGUUA   Not fulfilled

The measured values listed here are drawn from the supplement of paper PMC10338343.
